biological target: CDK-2/cyclin A2 (Homo sapiens, UniProt P24941); experiment: In vitro kinase inhibitory assessment, CDK-2/cyclin A2 (ELISA); details: mean of three values; read-out: IC50 (Mean ± SEM) CDK-2/Cyclin A2
property: IC50 (nM)

Lookup: Using the record for CC(=O)OC1COC(n2cc(COc3ccc4c(-c5ccccc5)cc(=O)oc4c3)nn2)C(OC(C)=O)C1OC(C)=O (stereo not drawn) , report its IC50.
Found: 480

I. O=c1cc(-c2ccccc2)c2ccc(OCc3nnn(CC(O)CO)n3)cc2o1 (stereo not drawn)
II. CC(=O)OC[C@H]1O[C@@H](n2cc(COc3ccc4c(-c5ccccc5)cc(=O)oc4c3)nn2)[C@H](OC(C)=O)[C@@H](OC(C)=O)[C@@H]1OC(C)=O
Lookup: Which one would you say has the larger IC50 value: I , or II ? Answer with the label corresponding to your selection.
Found: II

---

system: human prostate (PC-3) cancer cell line; assay: MTT cytotoxicity assay, PC-3; settings: Homo sapiens, read-out: % Inhibition PC-3
property: inhibition at 100 µM (%)
State the answer as a number, implicitly in %.

Lookup: Using the record for O=c1cc(-c2ccccc2)c2ccc(OCc3nnn([C@@H]4OC[C@@H](O)[C@H](O)[C@H]4O)n3)cc2o1 [Compound 8] , report its inhibition at 100 µM.
Found: 98.1

More entries:
Lookup: Using the record for O=c1cc(-c2ccccc2)c2ccc(OCc3cn([C@@H]4OC[C@@H](O)[C@H](O)[C@H]4O)nn3)cc2o1 [Compound 18] , report its inhibition at 100 µM.
Found: 91.4

Lookup: Using the record for CC(=O)OC[C@H]1O[C@@H](n2cc(COc3ccc4c(-c5ccccc5)cc(=O)oc4c3)nn2)[C@H](OC(C)=O)[C@@H](OC(C)=O)[C@@H]1OC(C)=O [Compound 13] , report its inhibition at 100 µM.
Found: 95.6

Lookup: Using the record for CC(=O)OC1COC(n2cc(COc3ccc4c(-c5ccccc5)cc(=O)oc4c3)nn2)C(OC(C)=O)C1OC(C)=O (stereo not drawn) [Compound 15] , report its inhibition at 100 µM.
Found: 98.2

---

# % Inhibition Caco-2 per record follows
tested on: human colon (Caco-2) cancer cell line; assay: MTT cytotoxicity assay, Caco-2; conditions: Caco-2, at 100 µM, MTT; (-) No activity detected
State the answer as a number, implicitly in %.

Answered examples (5):
Lookup: Using the record for O=c1cc(-c2ccccc2)c2ccc(OCc3cn([C@@H]4O[C@H](CO)[C@H](O)[C@H](O)[C@H]4O)nn3)cc2o1 [Compound 17] , report its % Inhibition Caco-2.
Found: 95.6

Lookup: Using the record for O=c1cc(-c2ccccc2)c2ccc(OCc3cn([C@@H]4OC[C@@H](O)[C@H](O)[C@H]4O)nn3)cc2o1 [Compound 18] , report its % Inhibition Caco-2.
Found: 99.4

Lookup: Using the record for O=c1cc(-c2ccccc2)c2ccc(OCc3nnn(CC(O)CO)n3)cc2o1 (centres unmarked) [Compound 10] , report its % Inhibition Caco-2.
Found: 99.6

Lookup: Using the record for O=c1cc(-c2ccccc2)c2ccc(O)cc2o1 [Compound 1, 7-hydroxy-4-phenyl-2H-chromen-2-one] , report its % Inhibition Caco-2.
Found: 40.5

Lookup: Using the record for O=c1cc(-c2ccccc2)c2ccc(OCc3nnn(CCOCCO)n3)cc2o1 [Compound 9] , report its % Inhibition Caco-2.
Found: 99.5

More entries:
Lookup: Using the record for O=c1cc(-c2ccccc2)c2ccc(OCc3cn([C@@H]4O[C@H](CO)[C@@H](O)[C@H](O)[C@H]4O)nn3)cc2o1 [Compound 16] , report its % Inhibition Caco-2.
Found: 99

Lookup: Using the record for CC(=O)OC[C@H]1O[C@@H](n2cc(COc3ccc4c(-c5ccccc5)cc(=O)oc4c3)nn2)[C@H](OC(C)=O)[C@@H](OC(C)=O)[C@@H]1OC(C)=O [Compound 13] , report its % Inhibition Caco-2.
Found: 99.6

Lookup: Using the record for CC(=O)OC[C@H]1O[C@@H](n2cc(COc3ccc4c(-c5ccccc5)cc(=O)oc4c3)nn2)[C@H](OC(C)=O)[C@@H](OC(C)=O)[C@H]1OC(C)=O [Compound 14] , report its % Inhibition Caco-2.
Found: 89.8

Lookup: Using the record for C#CCOc1ccc2c(-c3ccccc3)cc(=O)oc2c1 [Compound 11] , report its % Inhibition Caco-2.
Found: 0

Lookup: Using the record for CC(=O)OC1COC(n2cc(COc3ccc4c(-c5ccccc5)cc(=O)oc4c3)nn2)C(OC(C)=O)C1OC(C)=O (centres unmarked) [Compound 15] , report its % Inhibition Caco-2.
Found: 99.3

Lookup: Using the record for O=c1cc(-c2ccccc2)c2ccc(OCc3nnn([C@@H]4OC[C@@H](O)[C@H](O)[C@H]4O)n3)cc2o1 [Compound 8] , report its % Inhibition Caco-2.
Found: 97
